- Tested on: HDFB
- testDescription: cell viability relative to DMSO control; higher = less growth inhibition
- conditionDescription: log10 concentration (M): -9; treatment time: 6 days
Here the recorded cell viability is given for each entry.

molecule: Cc1cc2c(cc1N1C(=O)c3cccc4c(CCCO)ccc(c34)C1=O)n(C)c(=O)n2C [BAY299]
cell viability: 97.5%

molecule: Nc1ccccc1NC(=O)c1ccc(CNC(=O)OCc2cccnc2)cc1 [Entinostat]
cell viability: 102%

molecule: CCOC(=O)NCCCC(=O)NCCc1ccccc1 [Santacruzamate A]
cell viability: 101%

molecule: N[C@H]1CC[C@H](N[C@@H]2C[C@H]2c2ccccc2)CC1 [ORY-1001]
cell viability: 96.1%

molecule: c1ccc([C@@H]2C[C@H]2NC2CCNCC2)cc1 [GSK-LSD1]
cell viability: 100%

molecule: O=C(NC[C@H](O)CN1CCc2ccccc2C1)c1ccnc(NC2CCC2)c1 [GSK591]
cell viability: 104%

molecule: CN1CCN(c2ccc(-c3cccc(CN4CCOCC4)c3)cc2NC(=O)c2c[nH]c(=O)cc2C(F)(F)F)CC1 [OICR9429]
cell viability: 113%

molecule: Cc1sc2c(c1C)C(c1ccc(Cl)cc1)=N[C@@H](CC(=O)OC(C)(C)C)c1nnc(C)n1-2 [(+)-JQ1]
cell viability: 106%
